tested on: Escherichia coli IAI1; experiment: growth AUC relative to DMSO control (median of replicates) (fraction); higher = more growth (less inhibition), active = hit call of the paper; details: 20 µM; 24 h
Assay endpoint: growth AUC
Please reply with the number alone, leaving off any unit.

Recall the recorded growth AUC for Cc1c(C(=O)c2c[nH]n(C)c2=O)ccc(S(C)(=O)=O)c1C1=NOCC1 with Escherichia coli IAI1 and state it.
0.981

Do the same for CCSc1nc(NC(C)C)nc(NC(C)C)n1 please
0.982

Do the same for O=C1NCC[n+]2ccccc21.[Br-] please
0.978

Do the same for CN(C)C(=O)Nc1ccc(Cl)c(Cl)c1 please
0.963

Do the same for CCSC(=O)COc1ccc(Cl)cc1C please
0.986

Do the same for CCCC(C)(C)C(=O)Nc1ccc(Cl)cc1 please
1.01

Do the same for O=C(O)CNC(=O)c1cnccc1C(F)(F)F please
1.02

Do the same for Oc1ccccc1O please
1.01

Do the same for CO/N=C(/C(=O)O)c1ccccc1CO/N=C(\C)c1cccc(C(F)(F)F)c1 please
0.979

Do the same for FC(F)(F)C(=NOCC1OCCO1)c1ccc(Cl)cc1 please
1.04

Do the same for CC1(C)C(C(=O)OC(C#N)c2cccc(Oc3ccccc3)c2)C1C(Br)C(Br)(Br)Br (stereo not drawn) please
1.01

Do the same for CCOC(=O)c1ccc(O)cc1 please
0.969

Do the same for CCCCOC(=O)[C@@H](C)Oc1ccc(Oc2ccc(C(F)(F)F)cn2)cc1 please
0.997

Do the same for CCOCOc1ccc(C(=O)Nc2cccc(Cl)c2Cl)cc1 please
0.953

Do the same for Cc1cc(C)c(C2=C(O)C3(CCCC3)OC2=O)c(C)c1 please
1.01

Do the same for Cc1nn(C)c(Oc2ccccc2)c1/C=N/OCc1ccc(C(=O)OC(C)(C)C)cc1 please
0.991

Do the same for CCOC(=O)c1nc(C(Cl)(Cl)Cl)n(-c2ccc(Cl)cc2Cl)n1 please
1.01

Do the same for COC(=O)c1c(Cl)ccc(Cl)c1OC please
1.03

Do the same for O=C(O)Cc1cccc2ccccc12 please
0.991

Do the same for COC(=O)CC(NC(=O)[C@@H](NC(=O)OC(C)C)C(C)C)c1ccc(Cl)cc1 (stereo partly drawn) please
0.986

Do the same for CCOC(=O)Cc1[nH]nc2ccc(Cl)cc12 please
1

Do the same for CCCOc1nc2ccc(I)cc2c(=O)n1CCC please
0.974

Do the same for Cc1nc(C(F)(F)F)c(C(=O)Nc2c(Br)cc(OC(F)(F)F)cc2Br)s1 please
1.02

Do the same for O=C(Nc1ccc(Cl)cc1C(O)c1ccccc1)c1ccncc1 (stereo not drawn) please
0.958

Do the same for CCC(C)c1cc([N+](=O)[O-])cc([N+](=O)[O-])c1OC(=O)OC(C)C (stereo not drawn) please
0.929

Do the same for COC(=O)CCCOc1ccc(Cl)cc1Cl please
0.958

Do the same for Nc1ccc(S(=O)(=O)Nc2cnc3ccccc3n2)cc1 please
0.975

Do the same for CCOC(=O)C(C)Oc1ccc(Oc2nc3ccc(Cl)cc3o2)cc1 (racemic) please
0.949

Do the same for CCOC(=O)Cn1c(=O)sc2cccc(Cl)c21 please
0.957

Do the same for CCCNCCOc1c(Cl)cc(Cl)cc1Cl please
0.953

Do the same for c1ccc2c(c1)-c1cccc3c1c-2cc1ccccc13 please
1.01

Do the same for COc1c(I)cc(C#N)cc1I please
0.975

Do the same for CCCOC(=O)NCCCN(C)C please
0.979

Do the same for NC(=O)c1c(Cl)cccc1Cl please
0.983

Do the same for CCCCOC(=O)COc1ccc(Cl)cc1Cl please
1.03

Do the same for CC(C)OC(=O)c1cc(C(=O)OC(C)C)cc([N+](=O)[O-])c1 please
0.988

Do the same for C#CC(C)N(C)C(=O)Nc1ccc(Cl)cc1 (stereo not drawn) please
0.988

Do the same for CCOc1ccc(NC(=O)OC(C)C)cc1OCC please
1.04

Do the same for O.O.O=[N+]([O-])c1ccc([O-])cc1.[Na+] please
1.01

Do the same for c1ccc(Nc2ccccc2)cc1 please
1.01

Do the same for Cc1cc(N(C)C)nc(Cl)n1 please
0.992

Do the same for O=C(O)C1(C(=O)Nc2ccc(Cl)cc2Cl)CC1 please
1.02

Do the same for CCC/C(=N\OCC(C)Oc1ccc(Cl)cc1)C1=C(O)CC(C2CCCSC2)CC1=O (stereo not drawn) please
0.987

Do the same for COC(=O)c1ccc(C(=O)OC)cc1 please
0.989

Do the same for CCNc1nc(N)[nH]c(=O)n1 please
1

Do the same for O=S(=O)(Cc1ccc(Cl)cc1)c1ccc(Cl)cc1 please
1.02

Do the same for COC(=O)c1ccc(I)cc1S(=O)(=O)[N-]C(=O)Nc1nc(C)nc(OC)n1.[Na+] please
0.948

Do the same for CC(C)N(C(=O)CS(=O)CC(=O)O)c1ccc(F)cc1 (stereo not drawn) please
0.941

# credit: the supplement of paper PMC12669032
